- assay_notes: in vitro
- recorded_conditions: African green monkey, Relative cell viability (%), Fig. 4B; Omipalisib 0.06 μM; Remdesivir 0.00 μM
readout_label: viability
Could you give the number and then its unit, please?

Query: Give the measured viability for COc1ncc(-c2ccc3nccc(-c4ccnnc4)c3c2)cc1NS(=O)(=O)c1ccc(F)cc1F [Omipalisib]
Response: 82%

----------
- assay_notes: in vitro
- recorded_conditions: African green monkey, Relative cell viability (%), Fig. 4E; Tipifarnib 0.00 μM; Omipalisib 1.97 μM
readout_label: viability (%)
Numeric answer only, unit % assumed.

Query: Answer with the recorded viability of COc1ncc(-c2ccc3nccc(-c4ccnnc4)c3c2)cc1NS(=O)(=O)c1ccc(F)cc1F only.
Response: 84

# credit: paper PMC8325362
